All figures here come from PubChem BioAssay AID330.

System: P388 leukemia ip, CD2F1 mice, survival T/C
Test: NCI In Vivo Anticancer Drug Screen. Data for tumor model P388 Leukemia (intraperitoneal) in CD2F1 (CDF1) mice
Details: endpoint: median survival time; dose: 200.0 mg/kg/injection; schedule: Q01DX009 (ip); vehicle: saline; higher = longer survival
Inconclusive results and toxic doses are left out.
Listed below: T/C values for each entry.
ASSAY_ENDPOINT: T/C

>>> reported("ON(C=Nc1ccccc1)c1ccccc1")
"97 % of control"
>>> reported("CCCCCCCCCCCCCCCCC[CH2][Sn](=[O])[OH]")
"114 % of control"
>>> reported("CO[Si](CCCN)(OC)OC")
"110 % of control"
>>> reported("Cc1ncc(-c2ccccc2)c(N)n1")
"102 % of control"
>>> reported("NC(CS)C(=O)O (configuration not stated)")
"109 % of control"
>>> reported("CCOC(=O)NOC1CCCCO1 (configuration not stated)")
"104 % of control"
>>> reported("Cn1ccn(C)c1=S")
"101 % of control"
>>> reported("COC(=O)CS(=O)(=O)CS(=O)(=O)CC(=O)OC")
"97 % of control"
>>> reported("CNC(=S)N(C)C")
"109 % of control"
>>> reported("Nc1ccc(C2NC(=O)Cc3ccccc32)cc1 (configuration not stated)")
"86 % of control"
>>> reported("C1N2CN3CN1CN(C2)C3 (tested in a mixture with another compound)")
"107 % of control"
>>> reported("COC(=O)C(CNc1ccc(S(N)(=O)=O)cc1)=[N+]=[N-]")
"99 % of control"
>>> reported("CCOC(=O)C(CC(=O)O)=C(c1ccccc1)c1ccccc1")
"107 % of control"
>>> reported("O=C1CCCCC=C1Cl")
"108 % of control"
>>> reported("CC(=O)C1=CN(Cc2ccccc2)C=C(C)C1")
"96 % of control"
>>> reported("O=C1COc2ccccc2C(=O)C1")
"101 % of control"
>>> reported("CCOC(=O)C(=CN(C)c1ccc(Cl)cc1)C(=O)OCC")
"97 % of control"

---

Test system: P388 leukemia ip, CD2F1 mice, survival T/C
Test: NCI In Vivo Anticancer Drug Screen. Data for tumor model P388 Leukemia (intraperitoneal) in CD2F1 (CDF1) mice
Conditions: endpoint: median survival time; dose: 25.0 mg/kg/injection; schedule: Q01DX009 (ip); vehicle: distilled water + Tween-80
Inconclusive results and toxic doses are left out. The calls were made as follows: active = survival T/C of 150% or more; inactive = T/C below 125% in these data.
Outcomes: active, inactive

>>> assigned_class("CCNC(=O)OCc1c(COC(=O)NCC)c2n(c1C)CCc1ccccc1-2")
"active"
>>> assigned_class("CCC[As](CCC)SC1OC(C2COC(C)(C)O2)C2OC(C)(C)OC12 (centres undefined)")
"inactive"
>>> assigned_class("CC(=O)Nc1cccn(C)c1=O")
"inactive"
>>> assigned_class("CCOC(=O)c1ccc(N)cc1")
"inactive"

---

Test system: P388 leukemia ip, CD2F1 mice, survival T/C
Experiment: NCI In Vivo Anticancer Drug Screen. Data for tumor model P388 Leukemia (intraperitoneal) in CD2F1 (CDF1) mice
Settings: endpoint: median survival time; dose: 25.0 mg/kg/injection; schedule: Q04DX003 (ip); vehicle: saline; higher = longer survival
Inconclusive results and toxic doses are left out.
Listed below: T/C values for each entry.
ASSAY_ENDPOINT: T/C

>>> reported("COc1ccc2c(c1)N(CCC1CCCCN1C)c1ccccc1S2 (configuration not stated)")
"115 % of control"
>>> reported("OCC1OC(n2cnc3cncnc32)C(O)C1O (configuration not stated)")
"99 % of control"
>>> reported("O=Cc1ccc(O)c(CN2CCCCC2)c1")
"100 % of control"
>>> reported("NC(N)=N/N=C/C(Cl)Cl")
"100 % of control"
>>> reported("COC(C#N)c1ccccc1 (configuration not stated)")
"98 % of control"
>>> reported("CCCCCCCCOP(=O)(N1CC1C)N1CC1C (configuration not stated)")
"109 % of control"
>>> reported("CCCCCCCC[N+](C)(C)Cc1ccc(Oc2ccc(C[N+](C)(C)CCCCCCCC)cc2)cc1")
"110 % of control"

---

Test system: P388 leukemia ip, CD2F1 mice, survival T/C
Assay: NCI In Vivo Anticancer Drug Screen. Data for tumor model P388 Leukemia (intraperitoneal) in CD2F1 (CDF1) mice
Conditions: endpoint: median survival time; dose: 240.0 mg/kg/injection; schedule: Q01DX005 (ip); vehicle: saline with Tween-80; higher = longer survival
Toxic doses and inconclusive results are not listed.
ASSAY_ENDPOINT: T/C

>>> reported("COc1cc(C(NC(N)=O)c2cc3c(cc2O)OCO3)cc(OC)c1OC (stereo not drawn)")
"100 % of control"
>>> reported("CC(C)(Br)C(=O)/C=C/c1ccc(Cl)cc1")
"114 % of control"
>>> reported("COc1ccc(Cc2coc3ccccc3c2=O)cc1")
"100 % of control"
>>> reported("Cc1noc(C)c1C(=O)CCCCC(=O)O")
"104 % of control"
>>> reported("CC(=O)Nc1ccc(/C=N/NC(=O)CC2CCCCC2)cc1")
"91 % of control"
>>> reported("CC(=O)c1ccc(N/N=[N+](/C)[O-])cc1")
"99 % of control"
>>> reported("CN(C)/C=C/C(=O)c1ccccc1")
"102 % of control"
>>> reported("CC1(C2=CCCCC2)CCC(=O)NC1=O (stereo not drawn)")
"98 % of control"
>>> reported("Cc1ccc2c(c1)C1(SC(C)C(=O)N1c1ccc(F)cc1)C(=O)N2 (stereo not drawn)")
"87 % of control"
>>> reported("CCOC(=O)c1cc(/C=C/c2cccc(Cl)c2)on1")
"95 % of control"
>>> reported("CCN(CC)CCOC(=O)Nc1cc(Cl)cc(Cl)c1")
"100 % of control"
>>> reported("CC(C)c1ccc2nc3ccc(C(=O)NCCN4CCN(c5ccccc5)CC4)cn3c(=O)c2c1")
"92 % of control"
>>> reported("COc1ccc(C(C#N)C(=O)C(=O)Nc2ccc(Cl)cc2C)cc1OC (stereo not drawn)")
"105 % of control"
>>> reported("COC(=O)[C@]1(C)CCC[C@]2(C)c3ccc(C(C)C)cc3C(=O)C[C@@H]12")
"93 % of control"
>>> reported("COc1cc(C(C)c2cc3c(cc2O)OCO3)cc(OC)c1OC (stereo not drawn)")
"123 % of control"
>>> reported("N#CC(C(=O)CCc1nc2ccccc2[nH]1)c1c(Cl)cccc1Cl (stereo not drawn)")
"102 % of control"
>>> reported("O=C1CC23c4ccccc4N4C(=O)CC5OCC=C6CN1C2CC6C5C43 (stereo not drawn)")
"92 % of control"
>>> reported("Cc1cc([Se][Se]c2cc(C)c(C)cc2[N+](=O)[O-])c([N+](=O)[O-])cc1C")
"91 % of control"
>>> reported("O=C(CCC(=O)Nc1ccc(Cl)cc1Cl)CC(=O)c1ccco1")
"102 % of control"
>>> reported("CC1CCC23C1CC(CC(=O)C2(C)O)C3(C)C (stereo not drawn)")
"106 % of control"
>>> reported("Cc1ccc(-c2c([N+](=O)[O-])c3ccccn3c2[N+](=O)[O-])cc1")
"99 % of control"
>>> reported("CN=c1nc2n3c(cccc3n1)NC(C)=N2")
"99 % of control"
>>> reported("Cn1ccnc1CC(C)(O)c1ccccc1 (stereo not drawn)")
"108 % of control"
>>> reported("Cc1cc(=O)oc2ccc3c(=O)ccoc3c12")
"97 % of control"
>>> reported("Cc1ccc(S(=O)(=O)CC(=O)CC(=O)C(=O)Nc2ccc(Cl)cc2Cl)cc1")
"100 % of control"
>>> reported("CN=Nc1c(O)[nH]c2ccc(C)cc12")
"92 % of control"
>>> reported("O=S(=O)(O)c1cc(O)c2c(N=Cc3ccccc3O)c(S(=O)(=O)O)ccc2c1")
"95 % of control"
>>> reported("CCOC(=O)C1=C(Nc2ccc(Cl)cc2)C(=O)N(C(C)(C)C)C1")
"109 % of control"
>>> reported("COC(=O)c1[nH]c(=O)c(C#N)c(C(=O)OC)c1-c1ccc(F)cc1")
"95 % of control"
>>> reported("Cc1cc(N=[N+]=[N-])c2cc(C3CCCCC3)ccc2n1")
"92 % of control"
>>> reported("c1cc(Cc2ccsc2)cs1")
"106 % of control"
>>> reported("COc1ccccc1NC(=O)CC(=O)N1N=C(N(c2ccccc2)c2ccccc2)CC1c1ccccc1 (stereo not drawn)")
"96 % of control"
>>> reported("O=C1C(Br)=CC2C1C1C=CC2(Br)C1=O (stereo not drawn)")
"120 % of control"
>>> reported("Cc1cccc(Nc2c3c(nc4ccccc24)CCCCC3)c1")
"91 % of control"
>>> reported("N#CC(C(=O)C(=O)NC1C2CC3CC(C2)CC1C3)c1c(Cl)cccc1Cl (stereo not drawn)")
"100 % of control"
>>> reported("O=C1c2ccccc2C(=O)c2c1cc1c(c2O)OCO1")
"91 % of control"
>>> reported("O=C1CCC(c2n[nH]c(=S)n2-c2ccccc2)N1 (stereo not drawn)")
"94 % of control"
>>> reported("O=C1C(=O)N(c2ccc([N+](=O)[O-])cc2)C(=O)N1c1ccc([N+](=O)[O-])cc1")
"95 % of control"
>>> reported("CC(=O)Nc1c(Nc2ccc3c(=O)[nH]ccc3c2C)cc[nH]c1=O")
"103 % of control"
>>> reported("O=C(Nc1ccccc1C(=O)Nc1nccs1)c1ccccc1")
"98 % of control"
>>> reported("O=C(O)c1cc(S(=O)(=O)F)c(Cl)cc1Cl")
"104 % of control"
>>> reported("COc1ccc(C(=O)CCc2c[nH]c3ccccc23)c(O)c1")
"92 % of control"
>>> reported("O=S(=O)(Nc1cccnc1)c1ccccc1")
"105 % of control"
>>> reported("O=C1CSC=NN1c1ccccc1")
"108 % of control"
>>> reported("COc1ccc(C2c3c(ccc4ccccc34)Oc3ccc4ccccc4c32)cc1")
"90 % of control"
>>> reported("Nc1ccc(C(=O)Nc2ccc(NC(=O)c3ccco3)c(O)c2)cc1")
"89 % of control"
>>> reported("CSc1c(C)c(C)nn1-c1ccccc1")
"104 % of control"
>>> reported("CN1C(=O)N(C)C2(C(=O)N(C)C(=S)N2C)N(C)C1=O")
"102 % of control"
